- Test system: Escherichia coli
Structures can show the parent of a compound that is named as a salt.
QUANTITY_NAME: MIC (µg/mL)

COMPOUND	READING
CCOC(=O)c1ccc(NC(=N)NC(=N)NCCCCCCNC(=N)NC(=N)Nc2ccc(C(=O)OCC)cc2)cc1 [A = C2 H5 OCO, B = H, dihydrochloride]	1.56

A = COC(=O)c1ccc(NC(=N)NC(=N)NCCCCCCNC(=N)NC(=N)Nc2ccc(C(=O)OC)cc2)cc1 [drawing 6: A = CH3 OCO, B = H]
B = COC(=O)c1cccc(NC(=N)NC(=N)NCCCCCCNC(=N)NC(=N)Nc2cccc(C(=O)OC)c2)c1
# input Sorting ascending by MIC, which comes first: A or B ? Response format: the label of the selected entry.
# output B
